- Target system: T1, Human recombinant caspase-2 (human, UniProt P42575 170-452, limits assumed)
- T1 sequence (looked up): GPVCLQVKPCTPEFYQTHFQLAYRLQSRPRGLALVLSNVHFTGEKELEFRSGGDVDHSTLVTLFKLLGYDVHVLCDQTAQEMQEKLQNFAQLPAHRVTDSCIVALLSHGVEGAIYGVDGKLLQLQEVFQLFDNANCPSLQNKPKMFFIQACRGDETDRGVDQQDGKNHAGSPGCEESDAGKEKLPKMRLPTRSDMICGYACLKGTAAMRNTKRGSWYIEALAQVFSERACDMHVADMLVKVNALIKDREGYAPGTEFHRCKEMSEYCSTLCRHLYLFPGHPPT
- Protocol details: cell-based or functional assay
Readings of IC50 (nM), inhibition of Ac-VDVAD-AMC cleavage by human recombinant caspase-2 for the listed binders
Lab book: enter the figure in nM, no units written.

Here are 3 binders together with their reported answers.
{"Binder": "Ac-FDESD-aldehyde (SMILES CC(=O)N[C@@H](Cc1ccccc1)C(=O)N[C@@H](CC(=O)O)C(=O)N[C@@H](CCC(=O)O)C(=O)N[C@@H](CO)C(=O)N[C@H](C=O)CC(=O)O) [Ac-FDESD-cho]", "Reported result": 800}
{"Binder": "Ac-LDEKD-aldehyde (SMILES CC(=O)N[C@@H](CC(C)C)C(=O)N[C@@H](CC(=O)O)C(=O)N[C@@H](CCC(=O)O)C(=O)N[C@@H](CCCCN)C(=O)N[C@H](C=O)CC(=O)O) [Ac-LDEKD-cho]", "Reported result": 300}
{"Binder": "Ac-LDEGD-aldehyde (SMILES CC(=O)N[C@@H](CC(C)C)C(=O)N[C@@H](CC(=O)O)C(=O)N[C@@H](CCC(=O)O)C(=O)NCC(=O)N[C@H](C=O)CC(=O)O) [Ac-LDEGD-cho]", "Reported result": 430}

Note: attention shifts to another entry.
Request: Find the recorded IC50 (nM), inhibition of Ac-VDVAD-AMC cleavage by human recombinant caspase-2 belonging to Ac-LDESD-aldehyde (SMILES CC(=O)N[C@@H](CC(C)C)C(=O)N[C@@H](CC(=O)O)C(=O)N[C@@H](CCC(=O)O)C(=O)N[C@@H](CO)C(=O)N[C@H](C=O)CC(=O)O) [Ac-LDESD-cho] and report it.
Response: 300
